// data source = patent US9133129B2

TARGET_SYSTEM: human ACC2 (Homo sapiens, UniProt O00763)
Construct: made in house; host or cells: SF-9 insect cells, recombinant baculovirus BAC-ACC2 (Nd)
Sequence (O00763 117-2458 limits assumed): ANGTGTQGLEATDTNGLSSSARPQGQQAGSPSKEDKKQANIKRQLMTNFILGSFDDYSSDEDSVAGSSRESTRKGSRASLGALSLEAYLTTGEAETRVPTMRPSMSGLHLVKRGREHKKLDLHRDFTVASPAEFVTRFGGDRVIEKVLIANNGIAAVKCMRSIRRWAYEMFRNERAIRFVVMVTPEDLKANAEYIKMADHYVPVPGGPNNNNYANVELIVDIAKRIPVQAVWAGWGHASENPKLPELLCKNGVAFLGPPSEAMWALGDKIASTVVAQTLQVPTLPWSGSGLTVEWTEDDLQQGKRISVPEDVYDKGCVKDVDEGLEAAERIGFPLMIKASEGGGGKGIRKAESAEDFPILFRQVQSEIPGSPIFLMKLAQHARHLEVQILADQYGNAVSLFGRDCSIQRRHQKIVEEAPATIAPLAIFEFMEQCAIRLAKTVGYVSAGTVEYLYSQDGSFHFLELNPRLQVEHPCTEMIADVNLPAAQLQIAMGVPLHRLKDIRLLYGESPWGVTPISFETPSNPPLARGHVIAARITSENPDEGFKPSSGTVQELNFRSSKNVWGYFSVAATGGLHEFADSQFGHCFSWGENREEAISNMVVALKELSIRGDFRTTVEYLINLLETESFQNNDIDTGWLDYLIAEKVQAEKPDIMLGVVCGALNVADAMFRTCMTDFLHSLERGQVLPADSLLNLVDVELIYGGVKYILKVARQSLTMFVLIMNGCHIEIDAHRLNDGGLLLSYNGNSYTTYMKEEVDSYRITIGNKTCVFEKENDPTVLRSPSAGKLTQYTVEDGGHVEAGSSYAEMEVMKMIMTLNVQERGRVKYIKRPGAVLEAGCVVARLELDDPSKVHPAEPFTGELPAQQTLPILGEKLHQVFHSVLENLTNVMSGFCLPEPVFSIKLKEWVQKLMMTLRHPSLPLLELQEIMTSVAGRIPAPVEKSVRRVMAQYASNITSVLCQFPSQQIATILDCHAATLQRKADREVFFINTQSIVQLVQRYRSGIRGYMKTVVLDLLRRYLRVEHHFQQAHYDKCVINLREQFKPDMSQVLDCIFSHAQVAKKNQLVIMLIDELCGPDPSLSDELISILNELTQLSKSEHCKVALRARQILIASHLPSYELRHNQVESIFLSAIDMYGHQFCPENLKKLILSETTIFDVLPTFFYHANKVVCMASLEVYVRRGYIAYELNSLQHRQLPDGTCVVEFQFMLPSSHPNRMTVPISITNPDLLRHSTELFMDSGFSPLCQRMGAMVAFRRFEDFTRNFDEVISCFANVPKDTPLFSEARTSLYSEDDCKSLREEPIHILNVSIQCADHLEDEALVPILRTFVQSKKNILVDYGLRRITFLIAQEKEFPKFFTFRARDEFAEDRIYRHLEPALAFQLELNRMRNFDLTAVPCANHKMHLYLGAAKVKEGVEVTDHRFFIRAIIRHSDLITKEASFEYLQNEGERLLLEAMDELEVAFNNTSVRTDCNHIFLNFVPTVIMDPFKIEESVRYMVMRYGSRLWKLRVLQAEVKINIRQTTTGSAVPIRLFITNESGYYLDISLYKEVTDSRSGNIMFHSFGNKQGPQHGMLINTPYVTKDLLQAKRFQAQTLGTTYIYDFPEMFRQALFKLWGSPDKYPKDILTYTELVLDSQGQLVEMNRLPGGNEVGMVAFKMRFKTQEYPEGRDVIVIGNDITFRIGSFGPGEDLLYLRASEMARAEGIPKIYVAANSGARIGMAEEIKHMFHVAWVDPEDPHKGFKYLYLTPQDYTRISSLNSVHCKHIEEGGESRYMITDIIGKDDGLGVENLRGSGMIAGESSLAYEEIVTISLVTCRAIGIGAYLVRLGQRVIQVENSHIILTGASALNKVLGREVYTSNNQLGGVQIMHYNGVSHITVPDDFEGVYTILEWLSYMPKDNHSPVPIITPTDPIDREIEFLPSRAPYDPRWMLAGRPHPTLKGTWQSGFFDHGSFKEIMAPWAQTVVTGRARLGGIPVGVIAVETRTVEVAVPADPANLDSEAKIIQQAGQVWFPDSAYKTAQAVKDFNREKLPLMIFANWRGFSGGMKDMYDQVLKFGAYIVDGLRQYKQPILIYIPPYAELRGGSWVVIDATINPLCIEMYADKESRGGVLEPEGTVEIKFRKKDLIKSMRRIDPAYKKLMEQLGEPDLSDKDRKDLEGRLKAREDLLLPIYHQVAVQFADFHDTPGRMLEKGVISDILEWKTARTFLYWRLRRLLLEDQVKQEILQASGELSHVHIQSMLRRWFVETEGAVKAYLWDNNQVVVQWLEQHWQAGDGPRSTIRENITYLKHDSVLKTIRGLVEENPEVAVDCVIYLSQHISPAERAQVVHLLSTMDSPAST
MEASUREMENT_PROTOCOL: ACC2 inhibitory activity, malachite green assay with recombinant ACC2 (Nd)
Format: biochemical
CONDITION_SET: 10 μM of the test compound; read-out: ACC2 inhibitory rates (%) at 10 μM
QUANTITY_KIND: inhibition at 10 µM (%)
Write down the numeric answer in % and omit the unit.

Lookup: Requested read-out: inhibition at 10 µM. Entry: "CC(=O)N[C@@H](C)COc1ncc2nc(-c3cc(F)c(OC[C@H]4CC4(F)F)c(F)c3)oc2n1"
Found: 81

Lookup: Field entry: "CC(=O)N[C@@H](C)COc1cc2oc(-c3cnc(OCC4CC4)c(Cl)c3)nc2cn1"
Found: 83

More entries:
Lookup: Data request, read-out inhibition at 10 µM, for "CC(=O)N[C@@H](C)COc1ccc2nc(-c3ccc(OCC4CC4)c(F)c3)oc2c1F"
Found: 90

Lookup: // query: "CC(=O)N[C@@H](C)COc1cc2oc(-c3cc(F)c(OCC4CC4)c(F)c3)nc2cn1"
Found: 91

###

TARGET_SYSTEM: human ACC2 (Homo sapiens, UniProt O00763)
Construct: made in house; host or cells: SF-9 insect cells, recombinant baculovirus BAC-ACC2 (Nd)
MEASUREMENT_PROTOCOL: ACC2 inhibitory activity, malachite green assay with recombinant ACC2 (Nd)
Assay type: biochemical
CONDITION_SET: 10 μM of the test compound; read-out: ACC2 inhibitory rates (%) at 10 μM
Please use criterion met whenever inhibition at 10 µM is not below 90%, and criterion not met whenever it is.

Lookup: # bool: inhibition at 10 µM of CC(=O)N[C@@H](C)COc1cc2oc(-c3ncc(OCC4CC4)cc3C)nc2cn1 [Example 120] >= 90%
Found: criterion met

More entries:
Lookup: Check the entry CC(=O)N[C@@H](C)COc1cc2oc(-c3cnc(OCC4CC4)cc3C)nc2cn1 [Example 122] : does inhibition at 10 µM equal or exceed 90%?
Found: criterion not met

Lookup: Next up: CC(=O)N[C@@H](C)COc1cc2oc(-c3cc(F)c(OCC4CC4)cc3F)nc2cn1 [Example 48]
Found: criterion not met

Lookup: Another molecule to look at: CC(=O)N[C@@H](C)COc1ccc2nc(-c3ccc(OCC4CC4)c(F)c3)oc2c1 [Example 1]
Found: criterion met

Lookup: Then CC(=O)N[C@@H](C)COc1cc2oc(-c3ccc(OCC4CC4)cc3C)nc2cn1 [Example 117] ?
Found: criterion met

###

Reported inhibition at 1 µM values for a set of compounds
TARGET_SYSTEM: human ACC2 (Homo sapiens)
Construct: made in house; host or cells: SF-9 insect cells, recombinant baculovirus BAC-ACC2 (Nd)
MEASUREMENT_PROTOCOL: ACC2 inhibitory activity, malachite green assay with recombinant ACC2 (Nd)
Assay type: biochemical
CONDITION_SET: 1 μM of the test compound; read-out: ACC2 inhibitory rates (%) at 1 μM
Provide the measurement as a number trailed by its unit.

Some solved entries appear below for comparison.
Lookup: # lookup: inhibition at 1 µM of COc1cc(-c2nc3cnc(OC[C@H](C)NC(C)=O)cc3o2)cc(F)c1OCC1CC1 [Example 62]
Found: 90%

Lookup: Another compound to look at: CC(=O)N[C@@H](C)COc1cc2oc(-c3cc(F)c(OCC4CC4)cn3)nc2cn1 [Example 65]
Found: 95%

Lookup: Now try CC(=O)N[C@@H](C)COc1cc2oc(-c3ccc(OC[C@H]4CC4(F)F)cc3)nc2cn1 [Example 68] .
Found: 98%

Here's the next entry for you.
Lookup: Please give the measured inhibition at 1 µM for this compound: CC(=O)N[C@@H](C)COc1cc2oc(-c3ccc(OC[C@H]4CC4(F)F)c(F)c3)nc2cn1 [Example 69]
Found: 98%
